Origin of measurements: patent US6525059B1

target: human p38 kinase alpha (Homo sapiens, UniProt Q16539); construct: The coding region of the human p38a cDNA was obtained by PCR-amplification from RNA isolated from the human monocyte cell line THP.1; GST (N); made in house; host or cells: E. coli DH10B; assay: p38 kinase in vitro assay, phosphorylation of biotinylated PHAS-I with gamma 32P-ATP; assay type: biochemical; conditions: read-out: P38 alpha kinase IC50
Sequence (Q16539 whole entry): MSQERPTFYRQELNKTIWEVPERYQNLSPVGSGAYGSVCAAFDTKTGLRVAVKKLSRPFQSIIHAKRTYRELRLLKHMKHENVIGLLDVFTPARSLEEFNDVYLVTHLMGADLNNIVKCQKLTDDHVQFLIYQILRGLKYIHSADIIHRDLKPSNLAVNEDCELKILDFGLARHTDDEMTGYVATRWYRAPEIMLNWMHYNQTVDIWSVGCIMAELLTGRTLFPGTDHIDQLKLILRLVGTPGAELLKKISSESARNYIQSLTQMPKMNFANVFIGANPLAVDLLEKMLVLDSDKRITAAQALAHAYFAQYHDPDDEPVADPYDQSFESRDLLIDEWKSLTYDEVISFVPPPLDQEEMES
pIC50: −log10 of the molar value.
Metric Name: pIC50

- Smi: "O=C(NCc1[nH]nc(-c2ccc(F)cc2)c1-c1ccncc1)c1cccnc1"
  pIC50: 5.88
- Smi: "CCCOC(=O)NCc1[nH]nc(-c2ccc(F)cc2)c1-c1ccncc1"
  pIC50: 6.80

[1] CN(C)S(=O)(=O)NCc1[nH]nc(-c2ccc(F)cc2)c1-c1ccncc1
[2] C[C@@H](NS(=O)(=O)c1ccc(F)cc1F)c1[nH]nc(-c2ccc(F)cc2)c1-c1ccncc1
[3] C[C@@H](NC(=O)c1ccccc1C(F)(F)F)c1[nH]nc(-c2ccc(F)cc2)c1-c1ccncc1
[ask] Sort the compounds on pIC50; start with the lowest figure. // rank by listing labels in the order requested
[reply] 3, 1, 2
